target: monkey DLL3 on CHO-K1-cyno DLL3 cells (cynomolgus monkey); test: FACS, CHO-K1-cyno DLL3 cells, 4 nM antibody
Sequence (chain, as listed by the source limits assumed): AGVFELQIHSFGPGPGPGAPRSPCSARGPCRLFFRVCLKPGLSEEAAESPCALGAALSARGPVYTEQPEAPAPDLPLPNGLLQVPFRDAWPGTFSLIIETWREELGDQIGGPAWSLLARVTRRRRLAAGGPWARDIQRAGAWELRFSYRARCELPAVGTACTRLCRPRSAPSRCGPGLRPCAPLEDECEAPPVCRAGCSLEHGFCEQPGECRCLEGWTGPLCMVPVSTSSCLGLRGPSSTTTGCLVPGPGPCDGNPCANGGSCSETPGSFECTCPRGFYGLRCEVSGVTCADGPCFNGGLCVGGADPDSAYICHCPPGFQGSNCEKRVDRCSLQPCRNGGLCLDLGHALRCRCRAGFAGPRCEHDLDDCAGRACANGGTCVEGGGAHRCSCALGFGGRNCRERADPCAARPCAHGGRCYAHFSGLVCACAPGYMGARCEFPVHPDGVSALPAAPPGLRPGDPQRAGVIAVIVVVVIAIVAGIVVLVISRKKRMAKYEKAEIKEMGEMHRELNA
assayEndpoint: MFI (MFI)
Answers are plain numbers, in MFI.

Could you tell me MFI for each of these binders? They are listed below.
1. Hab006VL1VH4-hFc (scFv, part only; not given: VL-VH linker and human IgG1 Fc, V domains shown, not shown: another chain or arm of the molecule; a dimerising Fc or GST; small tags and cut ends) VL: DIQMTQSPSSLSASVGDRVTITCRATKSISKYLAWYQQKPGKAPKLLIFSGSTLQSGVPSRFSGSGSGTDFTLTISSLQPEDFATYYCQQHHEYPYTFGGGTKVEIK VH: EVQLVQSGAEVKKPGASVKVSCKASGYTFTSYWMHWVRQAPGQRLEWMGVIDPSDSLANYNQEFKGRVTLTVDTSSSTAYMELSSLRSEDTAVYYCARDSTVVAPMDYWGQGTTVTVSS
2. Hab006VL4VH1-hFc (scFv, part only; not given: scFv linker and human IgG1 Fc, V domains shown, not shown: another chain or arm of the molecule; a dimerising Fc or GST; small tags and cut ends) VL: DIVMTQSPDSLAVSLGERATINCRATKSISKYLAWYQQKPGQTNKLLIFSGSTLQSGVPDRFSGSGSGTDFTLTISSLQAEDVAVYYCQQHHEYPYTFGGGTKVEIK VH: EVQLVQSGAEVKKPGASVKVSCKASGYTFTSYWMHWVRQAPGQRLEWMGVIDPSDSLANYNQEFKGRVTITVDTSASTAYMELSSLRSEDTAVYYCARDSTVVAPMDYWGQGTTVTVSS
3. Hab015VL4VH1a-hFc (scFv, part only; not given: scFv linker and human IgG1 Fc, V domains shown, not shown: another chain or arm of the molecule; a dimerising Fc or GST; small tags and cut ends) VL: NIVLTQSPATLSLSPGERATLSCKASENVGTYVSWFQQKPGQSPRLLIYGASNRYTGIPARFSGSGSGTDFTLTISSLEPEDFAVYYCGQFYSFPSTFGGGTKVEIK VH: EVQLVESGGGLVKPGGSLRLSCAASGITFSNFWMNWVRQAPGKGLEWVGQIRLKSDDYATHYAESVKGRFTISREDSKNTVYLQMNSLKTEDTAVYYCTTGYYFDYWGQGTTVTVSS
4. Hab015VL4VH1b-hFc (scFv, part only; not given: VL-VH linker and human IgG1 Fc, V domains shown, not shown: another chain or arm of the molecule; a dimerising Fc or GST; small tags and cut ends) VL: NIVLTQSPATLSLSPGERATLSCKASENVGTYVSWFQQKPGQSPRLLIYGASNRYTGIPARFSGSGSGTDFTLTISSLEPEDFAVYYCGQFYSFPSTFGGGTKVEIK VH: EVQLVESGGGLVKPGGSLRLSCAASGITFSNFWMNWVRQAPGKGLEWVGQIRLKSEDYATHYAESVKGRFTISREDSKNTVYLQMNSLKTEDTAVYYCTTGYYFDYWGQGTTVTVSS
5. Hab015VL5VH1b-hFc (scFv, part only; not given: VL-VH linker and human IgG1 Fc, V domains shown, not shown: another chain or arm of the molecule; a dimerising Fc or GST; small tags and cut ends) VL: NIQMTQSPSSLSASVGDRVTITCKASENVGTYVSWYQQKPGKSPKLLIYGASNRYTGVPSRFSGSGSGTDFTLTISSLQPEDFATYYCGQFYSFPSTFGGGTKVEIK VH: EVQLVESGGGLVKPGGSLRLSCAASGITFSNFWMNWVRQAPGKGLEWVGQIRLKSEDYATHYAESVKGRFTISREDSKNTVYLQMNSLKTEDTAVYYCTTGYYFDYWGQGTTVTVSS

Result:
1. 8590
2. 8440
3. 5910
4. 6270
5. 6500

Entry source: patent EP4786492A1
